# testedOn: T1, ActRIIa receptor-Fc fusion (UniProt P27037 20-134, limits assumed)
# T1 construct: BMP receptor-Fc fusion used at 5 ug/mL
# measurementDescription: ELISA-like plate assay, captured BMP-7 from conditioned media, receptor-Fc detection
experimentalReadout: ActRIIa binding (relative to wild type = 1.0)

BMP-7 variant L90E (ligand, In conditioned media; numbering on mature BMP-7) STGGKQRSQNRSKTPKNQEALRMASVAENSSSDQRQACKKHELYVSFRDLGWQDWIIAPEGYAAYYCEGECAFPLNSYMNATNHAIVQTEVHFINPETVPKPCCAPTQLNAISVLYFDDSSNVILKKYRNMVVRACGCH = 0.24 relative to wild type

Now look at this entry.
Q) Reported ActRIIa binding (relative to wild type = 1.0), binder BMP-7 variant V26G (ligand, In conditioned media; numbering on mature BMP-7) STGGKQRSQNRSKTPKNQEALRMASGAENSSSDQRQACKKHELYVSFRDLGWQDWIIAPEGYAAYYCEGECAFPLNSYMNATNHAIVQTLVHFINPETVPKPCCAPTQLNAISVLYFDDSSNVILKKYRNMVVRACGCH : ____
A) 1.07 relative to wild type
